Molecular target: T1, canine NGF tagged at the C-terminus with the Flag tag (canine, UniProt A0A8I3PYI3 122-241)
T1 construct: mature; Expressed with baculovirus technology; also called feline NGF (processed form identical)
T1 sequence (A0A8I3PYI3 entry or part of it): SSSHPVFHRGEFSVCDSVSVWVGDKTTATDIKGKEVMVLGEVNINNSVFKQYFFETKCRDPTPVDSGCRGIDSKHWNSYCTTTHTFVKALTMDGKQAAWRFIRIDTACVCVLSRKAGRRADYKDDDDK
Assay: SPR off-rate screen, Fab-SASA on BSA chip
readout_kind: koff (s⁻¹)
Reply with just the number (in s⁻¹).

Enquiry: I'd like to know its koff. The binder in question is felinized clone 101 Fab-SASA variant N53M (VL) (Fab, V domains shown, not shown: small tags and cut ends) VH: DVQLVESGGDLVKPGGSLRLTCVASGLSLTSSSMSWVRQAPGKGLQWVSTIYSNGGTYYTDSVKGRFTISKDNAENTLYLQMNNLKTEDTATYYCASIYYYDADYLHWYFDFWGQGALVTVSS VL: EIQMTQSPTSLSASVGDRVTITCRASEGISNNLSWYQQTPGKAPKLLIYATSMLHSGVPSRFSGSGSGTDFTLTISSLQPEDFATYYCQQGYKWPLTFGGGTKLEITR
Return: 0.000648

Further cases:
Enquiry: I'd like to know its koff. The binder in question is felinized clone 101 Fab-SASA variant S30P (VL) (Fab, V domains shown, not shown: small tags and cut ends) VH: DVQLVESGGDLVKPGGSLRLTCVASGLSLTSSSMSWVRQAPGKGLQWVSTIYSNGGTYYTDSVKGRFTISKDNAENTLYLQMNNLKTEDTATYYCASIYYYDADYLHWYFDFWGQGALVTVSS VL: EIQMTQSPTSLSASVGDRVTITCRASEGIPNNLSWYQQTPGKAPKLLIYATSNLHSGVPSRFSGSGSGTDFTLTISSLQPEDFATYYCQQGYKWPLTFGGGTKLEITR
Return: 0.00067

Enquiry: I'd like to know its koff. The binder in question is felinized clone 101 Fab-SASA variant N53V (VL) (Fab, V domains shown, not shown: small tags and cut ends) VH: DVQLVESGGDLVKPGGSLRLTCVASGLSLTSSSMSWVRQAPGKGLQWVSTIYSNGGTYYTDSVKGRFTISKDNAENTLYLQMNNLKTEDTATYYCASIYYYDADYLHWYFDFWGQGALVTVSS VL: EIQMTQSPTSLSASVGDRVTITCRASEGISNNLSWYQQTPGKAPKLLIYATSVLHSGVPSRFSGSGSGTDFTLTISSLQPEDFATYYCQQGYKWPLTFGGGTKLEITR
Return: 0.000407
